Quantity Name: melting point

[[record]]
compound = "O/N=C/Nc1ccc(N2CCCCCC2)c(Cl)c1 [Compound 23]"
quantity_name = "melting point"
measured_result = "113 to 114 °C"

[[record]]
compound = "O/N=C/Nc1ccc(N2CCOCC2)nc1 [Compound 128]"
quantity_name = "melting point"
measured_result = "172 to 174 °C"

[[record]]
compound = "CC1CN(c2ccc(N/C=N/O)cc2Cl)CC(C)O1 (stereo not drawn) [Compound 9]"
quantity_name = "melting point"
measured_result = "163 to 164 °C (dec.)"

[[record]]
compound = "O/N=C/Nc1ccc(N2CC=CCC2)c(F)c1 [Compound 15]"
quantity_name = "melting point"
measured_result = "129 to 130 °C"

[[record]]
compound = "O/N=C/Nc1ccc(N2CCCCCC2)c(C(F)(F)F)c1 [Compound 26]"
quantity_name = "melting point"
measured_result = "127 to 128.5 °C"

[[record]]
compound = "O/N=C/Nc1ccc(N2CCN(CCN3CCCC3)CC2)c(Br)c1 [Compound 95]"
quantity_name = "melting point"
measured_result = "163 to 165 °C"

